- Tested on: HeLa MKYP cells
- TEST DETAILS: Human mitophagy assay (HeLa MKYP, mtKeima FACS, FCCP/oligomycin)
- Type: cell-based
- TEST CONDITIONS: Homo sapiens, HeLa, Table 3 Supplement A; as measured in Table 3; read-out: Potency (EC50 Max Mitophagy) (μM)*
- Procedure: Briefly, HeLa MKYP cells were plated at 10,000 cells/well in 96 well plates along with compounds at various concentrations. Following 16 hrs of incubation, cells were treated with 1 uM FCCP/oligomycin for 6 hours, then analyzed via FACS for the presence of mitochondria in lysosomes (as determined by an emissions spectrum shift from the pH-sensitive mtKeima tag). Examples are shown in FIG. 1 through FIG. 13 below.
RESULT TYPE: EC50 (µM)
State the answer as a number, implicitly in µM.

Query: Give the measured EC50 of c1ccc2c(c1)OCC2Nc1ncnc2[nH]cnc12 (centres unmarked) .
Response: 6.11

Next up:
Query: Which EC50 is reported for this molecule? CC(Nc1ncnc2[nH]c(C3CC3)nc12)c1ccccc1 (centres unmarked)
Response: 6.32

###

- TEST DETAILS: In vivo summary, pharmacokinetics, mouse
- TEST CONDITIONS: in vivo, IV at 1 mg/kg, Table 8A
RESULT TYPE: AUC (ng·h/mL)
Give just the numeric value; ng·h/mL need not be written.

Query: So what's the measured AUC for this one? FC(F)(F)c1cc2c(NC3CCCc4ccccc43)ncnc2[nH]1 (stereo not shown) [Compound 15]
Response: 487

###

- Test system: HeLa MKYP cells
- TEST DETAILS: Toxicity / cell death measured by DAPI staining (take-up)
- Assay type: cell-based
- TEST CONDITIONS: Table 3 Supplement B; 25 μM, no FO
RESULT TYPE: Cell death at 25 μM (no FO) (%)
Answer with a number only, understood to be in %.

Query: Could you share which Cell death at 25 μM (no FO) value was measured for "O[C@@H]1Cc2ccccc2[C@@H]1Nc1ncnc2[nH]c(C(F)(F)F)cc12" ?
Response: 5.5

Query: // lookup Cell death at 25 μM (no FO) for "CN(C)[C@H]1CCc2ccccc2[C@@H]1Nc1ncnc2[nH]c(C(F)(F)F)cc12"
Response: 4.33

Let us move to another entry and its Cell death at 25 μM (no FO).
Query: Find the recorded Cell death at 25 μM (no FO) belonging to FC(F)(F)c1cc2c(NC3CCCc4ccccc43)ncnc2[nH]1 (stereo not drawn) and report it.
Response: 2.59

###

- Test system: HeLa MKYP cells
- TEST DETAILS: Toxicity / cell death measured by DAPI staining (take-up)
- Type: cell-based
- TEST CONDITIONS: Table 3; 50 μM
Returns one of criterion met or criterion not met; criterion met when Toxicity (% positive for DAPI takeup @ 50 μM) is >= 30%.

Example entries begin here.
Query: Check this compound for Toxicity (% positive for DAPI takeup @ 50 μM) at or above 30%: FC(F)(F)c1cc2c(NC3CCCc4ccccc43)ncnc2[nH]1 (centres unmarked)
Response: criterion not met

Query: Hi team, for C[C@H]1CCc2ccccc2[C@H]1Nc1ncnc2[nH]c(C(F)(F)F)cc12 [Compound 101] , is the recorded Toxicity (% positive for DAPI takeup @ 50 μM) at or above 30%?
Response: criterion not met

Query: # check: Toxicity (% positive for DAPI takeup @ 50 μM) of "Cc1nc2c(N[C@@H](C)c3ccccc3)ncnc2[nH]1" is greater than or equal to 30%
Response: criterion met

Query: Could you tell me if the measured Toxicity (% positive for DAPI takeup @ 50 μM) of "CCCCNc1ncnc2[nH]c(C3CC3)nc12" reaches 30% or more?
Response: criterion not met

Please examine the following record next.
Query: Identify whether the reported Toxicity (% positive for DAPI takeup @ 50 μM) of the following compound is 30% or greater: "COc1ncc(CNc2ncnc3[nH]c(C(F)(F)F)cc23)cn1"
Response: criterion not met
